# test.name: Pharmacokinetic study in mice
# Type: in vivo, male C57BL/6J mice
# test.context: male, C57BL/6J, plasma, 1 mg/kg; mouse, IV, 1 mpk
Where a name gives a salt, the structure may show the parent alone.
observable: clearance (mL/min/kg)

[I] CNC(=O)c1nccc2c(-c3cnc(Nc4ccc(OC5CC5)nc4)cc3C)c[nH]c12 [Compound 1 hydrochloride]
[II] Cl.FC(F)(F)c1ccc(CNc2ccc(Cc3c[nH]c4ncc(Cl)cc34)cn2)cn1 [PLX-3397, Pexidartinib, reference compound]
Lower value of clearance belongs to which: I or II ? Selection: enter the item's label.
I
(I: 0.2 mL/min/kg, II: 0.927 mL/min/kg)
